Measured pKd accompanies every entry in the list below.
# SYSTEM_TESTED: T1, human transferrin receptor 1 (hTfR1) (human, UniProt P02786 89-760, limits assumed)
# T1 construct: The selections used the biotinylated ECD domain of hTfR1
# ASSAY: competition phage ELISA (phage-displayed Fab)
Scale: negative log10 of molar concentration, which is what pKd denotes.

Some binders with known pKd results, for comparison:
Fab0069 (Fab, V domains shown) VH: EVQLVESGGGLVQPGGSLRLSCATSGYTFTSYWVHWVRQAPGKGLEWVAEINPTNGRSNYIEKFKSRITLSVDKSKSTVYLQMNSLRAEDTAVYYCARGTRAYHYWGQGTLVTVSS VL: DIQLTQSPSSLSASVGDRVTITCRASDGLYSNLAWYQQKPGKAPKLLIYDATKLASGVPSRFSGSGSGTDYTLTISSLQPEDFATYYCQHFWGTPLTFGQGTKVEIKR: 9.46
Fab0064 (Fab, V domains shown) VH: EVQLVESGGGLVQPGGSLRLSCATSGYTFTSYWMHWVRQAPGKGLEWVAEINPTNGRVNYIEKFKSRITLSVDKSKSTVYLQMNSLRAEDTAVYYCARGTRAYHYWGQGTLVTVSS VL: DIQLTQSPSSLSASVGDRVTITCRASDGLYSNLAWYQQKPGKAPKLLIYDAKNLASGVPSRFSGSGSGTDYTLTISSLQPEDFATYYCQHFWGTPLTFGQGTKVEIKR: 9.47
Fab0067 (Fab, V domains shown) VH: EVQLVESGGGLVQPGGSLRLSCATSGYTFTSYWVHWVRQAPGKGLEWVAEINPTNGRTNYIEKFKSRITLSVDKSKSTVYLQMNSLRAEDTAVYYCARGTRAYHYWGQGTLVTVSS VL: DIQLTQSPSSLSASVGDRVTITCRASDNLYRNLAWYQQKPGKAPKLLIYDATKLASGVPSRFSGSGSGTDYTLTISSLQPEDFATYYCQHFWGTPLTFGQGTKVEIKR: 9.46
Fab0074 (Fab, V domains shown) VH: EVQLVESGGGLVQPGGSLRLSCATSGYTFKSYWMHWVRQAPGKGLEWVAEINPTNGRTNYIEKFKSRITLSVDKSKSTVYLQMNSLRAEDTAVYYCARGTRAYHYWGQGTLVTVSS VL: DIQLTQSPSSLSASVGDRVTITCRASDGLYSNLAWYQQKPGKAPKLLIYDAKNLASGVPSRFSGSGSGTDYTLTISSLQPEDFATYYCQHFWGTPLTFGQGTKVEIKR: 9.34
Fab0071 (Fab, V domains shown) VH: EVQLVESGGGLVQPGGSLRLSCATSGYTFNSYWMHWVRQAPGKGLEWVAEINPTNGRTNYIEKFKSRITLSVDKSKSTVYLQMNSLRAEDTAVYYCARGTRAYHYWGQGTLVTVSS VL: DIQLTQSPSSLSASVGDRVTITCRASDGLYSNLAWYQQKPGKAPKLLIYDARNLASGVPSRFSGSGSGTDYTLTISSLQPEDFATYYCQHFWGTPLTFGQGTKVEIKR: 9.35

// moving on: another record for pKd
May I ask what pKd has been recorded for Fab0061 (Fab, V domains shown) VH: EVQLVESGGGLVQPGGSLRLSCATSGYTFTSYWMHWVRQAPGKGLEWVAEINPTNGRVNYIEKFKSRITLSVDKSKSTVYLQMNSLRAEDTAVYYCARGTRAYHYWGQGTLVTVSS VL: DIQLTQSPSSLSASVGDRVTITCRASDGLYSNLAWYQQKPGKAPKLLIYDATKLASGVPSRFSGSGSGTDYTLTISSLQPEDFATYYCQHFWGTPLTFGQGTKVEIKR ?
9.31
